# target under test: T1, EsCas13d, nuclease-dead (Eubacterium siraeum, UniProt B0MS50, R295A;H300A;R849A;H854A)
# T1 sequence: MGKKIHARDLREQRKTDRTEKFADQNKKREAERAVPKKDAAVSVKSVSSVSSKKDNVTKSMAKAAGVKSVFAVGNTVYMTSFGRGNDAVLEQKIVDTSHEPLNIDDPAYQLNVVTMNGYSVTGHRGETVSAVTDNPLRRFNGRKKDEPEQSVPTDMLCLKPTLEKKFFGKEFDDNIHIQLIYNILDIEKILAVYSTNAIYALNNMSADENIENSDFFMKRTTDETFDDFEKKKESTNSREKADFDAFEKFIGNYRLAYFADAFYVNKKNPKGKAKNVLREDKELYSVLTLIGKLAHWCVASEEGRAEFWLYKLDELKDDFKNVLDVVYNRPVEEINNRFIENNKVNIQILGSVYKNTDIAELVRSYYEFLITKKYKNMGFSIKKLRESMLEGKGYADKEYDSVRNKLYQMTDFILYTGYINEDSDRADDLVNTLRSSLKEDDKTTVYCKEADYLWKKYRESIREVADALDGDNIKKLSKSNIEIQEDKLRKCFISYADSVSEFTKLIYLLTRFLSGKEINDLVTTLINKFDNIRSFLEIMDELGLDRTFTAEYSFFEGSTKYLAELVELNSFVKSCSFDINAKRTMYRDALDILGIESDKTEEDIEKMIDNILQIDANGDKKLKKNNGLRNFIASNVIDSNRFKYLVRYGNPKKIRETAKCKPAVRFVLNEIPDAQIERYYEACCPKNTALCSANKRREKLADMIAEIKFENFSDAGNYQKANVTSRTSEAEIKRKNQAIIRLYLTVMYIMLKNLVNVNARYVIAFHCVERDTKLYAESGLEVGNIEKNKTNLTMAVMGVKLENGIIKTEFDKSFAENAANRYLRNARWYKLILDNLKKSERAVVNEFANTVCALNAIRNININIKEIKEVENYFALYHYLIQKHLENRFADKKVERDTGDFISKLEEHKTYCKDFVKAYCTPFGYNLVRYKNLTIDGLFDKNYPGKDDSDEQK
# test protocol: crRNA (strand 1, pre-loaded); Mg2+; 40 mM Tris-HCl pH 7.5, 150 mM NaCl, 6 mM MgCl2, 1 mM DTT, 0.1% Tween-20, 0.2 mg/ml BSA; 25 C; 10 min per concentration, then washed
# condition description: tags: His6-TwinStrep-SUMO cleaved; N-terminal SNAP kept (SNAP-Surface 488); label: 3' end held by stalled T7 RNA polymerase
Measured Kd by item

{"binder": "target 1 G5C,A9U (mixed) RNA 1: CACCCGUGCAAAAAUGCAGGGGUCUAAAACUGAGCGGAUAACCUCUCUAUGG RNA 2: GGGAAUGGAUCCACAUCUACGAAUUCGUACCAUAGAGAGGUUUUCCCCUCACCGAGAUCGGAAGAGCACACGU", "Kd (nM)": 11.8}
{"binder": "target 1 insA 3' of 22,insU 3' of 21 (mixed) RNA 1: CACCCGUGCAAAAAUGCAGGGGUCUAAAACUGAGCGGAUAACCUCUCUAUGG RNA 2: GGGAAUGGAUCCACAUCUACGAAUUCGUACACUAUAGAGAGGUUAUCCGCUCACCGAGAUCGGAAGAGCACACGU", "Kd (nM)": 6.09}
{"binder": "target 1 insG 3' of 14,insA 3' of 11 (mixed) RNA 1: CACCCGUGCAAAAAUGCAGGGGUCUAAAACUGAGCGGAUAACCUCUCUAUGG RNA 2: GGGAAUGGAUCCACAUCUACGAAUUCGUACCAUAGAGAGGGUAUAUCCGCUCACCGAGAUCGGAAGAGCACACGU", "Kd (nM)": 39.2}
{"binder": "target 2 MT 5'PFS CAG 3'PFS AAC (mixed) RNA 1: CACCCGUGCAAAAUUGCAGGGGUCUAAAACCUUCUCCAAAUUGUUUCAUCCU RNA 2: GGGAAUGGAUCCACAUCUACGAAUUCCAGAGGAUGAAACAAUUUGGAGAAGAACAGAUCGGAAGAGCACACGU", "Kd (nM)": 6.1}
